Each entry below carries its recorded clearance.
# PROTOCOL: Clearance in Sprague-Dawley rat at 2 umol/kg, iv
# Assay type: ADME, organism-based
# CONDITION_SUMMARY: in vivo
MEASUREMENT_TYPE: clearance (mL/min/kg)

• O=C(c1ccc(I)cc1NS(=O)(=O)c1cccc2nccnc12)N1CCOCC1 = 6
• O=C(c1ccc(Br)cc1NS(=O)(=O)c1cccc2nccnc12)N1CCCCC1 = 13.8
• O=C(c1ccc(Cl)cc1NS(=O)(=O)c1cccc2nsnc12)N1CCCCC1 = 20.8
• O=C(c1ccc(Br)cc1NS(=O)(=O)c1cccc2nsnc12)N1CCCCC1 = 11.7
• O=C(c1cc(Cl)ccc1NS(=O)(=O)c1cccc2nsnc12)N1CCCCC1 = 7

----------
# Test system: Caco-2
# PROTOCOL: Apparent permeability from basolateral to apical side of Caco-2 cells
# Format: ADME, cell-based
# CONDITION_SUMMARY: human
MEASUREMENT_TYPE: Papp (×10⁻⁶ cm/s)

- O=C(c1ccc(Cl)cc1NS(=O)(=O)c1cccc2nsnc12)N1CCCCC1: 1.8

----------
# PROTOCOL: Stability in rat liver S9 fraction after 30 mins
# Assay type: ADME
# CONDITION_SUMMARY: read-out: Stability
MEASUREMENT_TYPE: remaining at 0.5 h (%)

* O=C(c1ccc(Cl)cc1NS(=O)(=O)c1cccc2nsnc12)N1CCCCC1 | 62

----------
# half-life per record follows
# PROTOCOL: Half life in Beagle dog at 2 umol/kg, iv
# Format: ADME, organism-based, Canis lupus familiaris
# CONDITION_SUMMARY: in vivo
MEASUREMENT_TYPE: half-life

* O=C(c1ccc(I)cc1NS(=O)(=O)c1cccc2nccnc12)N1CCOCC1 | 90 min
* O=C(c1ccc(Br)cc1NS(=O)(=O)c1cccc2nsnc12)N1CCCCC1 | 25.2 min

----------
# TGT: Gastrin/cholecystokinin type B receptor (Homo sapiens, UniProt P32239)
# Sequence (P32239 whole entry): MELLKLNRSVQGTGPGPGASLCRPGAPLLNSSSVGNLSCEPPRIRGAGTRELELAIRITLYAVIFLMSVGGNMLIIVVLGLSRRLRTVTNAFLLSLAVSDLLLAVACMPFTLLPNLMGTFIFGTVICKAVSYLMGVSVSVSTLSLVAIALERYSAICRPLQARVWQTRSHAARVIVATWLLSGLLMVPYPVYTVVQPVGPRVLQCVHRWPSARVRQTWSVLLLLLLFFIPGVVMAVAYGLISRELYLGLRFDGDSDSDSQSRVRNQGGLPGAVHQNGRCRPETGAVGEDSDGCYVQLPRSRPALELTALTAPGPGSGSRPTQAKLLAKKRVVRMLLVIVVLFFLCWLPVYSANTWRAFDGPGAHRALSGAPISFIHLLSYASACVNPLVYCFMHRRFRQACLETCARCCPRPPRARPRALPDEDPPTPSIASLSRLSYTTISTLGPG
# CONDITION_SUMMARY: read-out: Log Ki (converted)
# Description: Displacement of [125I]CCK-8S from human CCK2R
Output 1 for records whose Ki is lower than 0.3 µM, -1 for records at or above 0.3 µM.

- C[C@@H]1COC[C@H](C)N1C(=O)c1ccc(Cl)cc1NS(=O)(=O)c1cccc2nccnc12: -1
- CCc1ccc(C(=O)N2CCCCC2)c(NS(=O)(=O)c2cccc3nsnc23)c1: 1
- O=C(N[C@@H](Cc1ccccc1)C(=O)O)c1ccc(Br)cc1NS(=O)(=O)c1cc2ccccc2[nH]1: -1
- O=C(c1ccc(Cl)cc1NS(=O)(=O)c1cccc2nonc12)N1CCCCC1: -1
- O=C(c1ccc(Cl)cc1NS(=O)(=O)c1cccc2nsnc12)N1CCc2ccccc2C1: -1
- O=C(c1ccc(Cl)cc1NS(=O)(=O)c1cccc2nsnc12)N1CCCC1: 1
- O=C(c1ccc(Cl)cc1NS(=O)(=O)c1cccc2nsnc12)N1CCCCCC1: 1
- CC(C)c1ccc(C(=O)N2CCCCC2)c(NS(=O)(=O)c2cccc3nsnc23)c1: -1
- COc1ccc(C(=O)N2CCCCC2)c(NS(=O)(=O)c2cccc3nsnc23)c1: -1
- Nc1ccc(C(=O)N2CCCCC2)c(NS(=O)(=O)c2cccc3nsnc23)c1: -1
- O=C(c1ccc(Br)cc1NS(=O)(=O)c1cccc2nccnc12)N1CCCCC1: 1
- O=C(c1c(Cl)cccc1NS(=O)(=O)c1cccc2nsnc12)N1CCCCC1: -1
- O=C(c1ccc(-n2cccc2)cc1NS(=O)(=O)c1cccc2nsnc12)N1CCCCC1: -1
- O=C(c1ccc(Cl)cc1NS(=O)(=O)c1cccc2nsnc12)N1CCOCC1: -1
- C[C@@H]1C=C[C@H](C)N1C(=O)c1ccc(Cl)cc1NS(=O)(=O)c1cccc2nsnc12: 1
- CN(C)c1ccc(C(=O)N2CCCCC2)c(NS(=O)(=O)c2cccc3nsnc23)c1: -1
- O=C(c1cc(Cl)ccc1NS(=O)(=O)c1cccc2nsnc12)N1CCCCC1: -1
- O=C(c1ccc(I)cc1NS(=O)(=O)c1cccc2nsnc12)N1CCCCC1: 1
- O=C(c1ccc(Br)cc1NS(=O)(=O)c1c(F)ccc2nsnc12)N1CCCCC1: 1
- O=C(c1ccc(Br)cc1NS(=O)(=O)c1cccc2ncccc12)N1CCCCC1: -1

----------
# PROTOCOL: Binding to alpha-glycoprotein
# Format: ADME
# CONDITION_SUMMARY: human, read-out: PPB (converted)
MEASUREMENT_TYPE: fraction unbound

- O=C(c1ccc(Cl)cc1NS(=O)(=O)c1cccc2nsnc12)N1CCCCC1: 0.23

----------
# PROTOCOL: Oral bioavailability in Sprague-Dawley rat at 2 umol/kg, po
# Type: ADME, organism-based
# CONDITION_SUMMARY: in vivo
Items are presented alongside their recorded bioavailability.
MEASUREMENT_TYPE: bioavailability (%)

- O=C(c1ccc(Br)cc1NS(=O)(=O)c1cccc2nsnc12)N1CCCCC1: 68
- O=C(c1ccc(I)cc1NS(=O)(=O)c1cccc2nccnc12)N1CCOCC1: 55
- O=C(c1ccc(Br)cc1NS(=O)(=O)c1cccc2nccnc12)N1CCCCC1: 50
- O=C(c1ccc(Cl)cc1NS(=O)(=O)c1cccc2nsnc12)N1CCCCC1: 42

----------
# PROTOCOL: Stability in dog liver S9 fraction after 15 mins
# Assay type: ADME, Canis lupus familiaris
# CONDITION_SUMMARY: read-out: Stability
MEASUREMENT_TYPE: remaining at 0.25 h (%)

• O=C(c1ccc(Cl)cc1NS(=O)(=O)c1cccc2nsnc12)N1CCCCC1 = 78
